Biological target: JNK1 (Homo sapiens)
Construct: purchased Carna Biosciences
Assay: JNK1 biochemical assays (one or more of: time resolved fluorescence, Z'-LYTE Cascade, radioactive)
Details: one or more of the JNK1 biochemical assays; read-out: Act. Level (JNK1 IC50 activity level)
pIC50: −log10 of the molar value.
Would you mind telling me the reported pIC50 of each entry?

Exam item: // pIC50 lookup, key: `CN[C@H]1CC[C@H](Nc2ncc(C(N)=O)c(NC(C)C)n2)CC1`
Marked response: > 6.70

Exam item: Repeat with `CC(C)(CO)Nc1nc(N[C@H]2CC[C@H](O)CC2)ncc1C(N)=O`
Marked response: > 6.70

Exam item: Repeat with `NC(=O)c1cnc(N[C@H]2CC[C@H](OCC(F)(F)F)CC2)nc1N[C@@H]1CCC[C@@H]1CO`
Marked response: > 6.70

Exam item: Repeat with `CC(C)(C)Nc1nc(N[C@@H]2CCCOC2)ncc1C(N)=O`
Marked response: > 6.70

Exam item: Repeat with `CCC1(Nc2nc(N[C@H]3CC[C@H](OC)CC3)ncc2C(N)=O)CCCC1`
Marked response: > 6.70

Exam item: Repeat with `CO[C@H]1CC[C@](C)(Nc2ncc(C(N)=O)c(N[C@@H]3CCC[C@H](O)C3)n2)CC1`
Marked response: > 6.70

Exam item: Repeat with `CO[C@H]1CC[C@H](Nc2ncc(C(N)=O)c(N[C@H]3C[C@H](C)C3)n2)CC1`
Marked response: > 6.70

Exam item: Repeat with `CC(C)(C)Nc1nc(N[C@H]2CCCOC2)ncc1C(N)=O`
Marked response: > 6.70

Exam item: Repeat with `CCC(C)(CC)Nc1nc(N[C@H]2CC[C@H](O)CC2)ncc1C(N)=O`
Marked response: > 6.70

Exam item: Repeat with `CC(C)Nc1ncc(C(N)=O)c(N[C@@H]2CCC[C@](C)(O)C2)n1`
Marked response: > 6.70

Exam item: Repeat with CC(C)(C)Nc1nc(NC2CCCC(O)CC2)ncc1C(N)=O (centres unmarked) [Example 251]
Marked response: > 6.70

Exam item: Repeat with CC1(C)CCC(Nc2nc(NC(C)(C)C)ncc2C(N)=O)C(O)C1 (centres unmarked) [Example 343]
Marked response: > 6.70

Exam item: Repeat with `C[C@@H](Nc1nc(N[C@H]2CC[C@H](C(=O)N(C)C)CC2)ncc1C(N)=O)C1CC1`
Marked response: > 6.70

Exam item: Repeat with `CC1(Nc2ncc(C(N)=O)c(N[C@@H]3CCCC[C@H](O)C3)n2)CCC1`
Marked response: > 6.70

Exam item: Repeat with `C[C@@H](Nc1nc(N[C@H]2CC[C@H](OC(F)F)CC2)ncc1C(N)=O)C1CC1`
Marked response: > 6.70

Exam item: Repeat with `CN(C)C(=O)[C@H]1CC[C@H](Nc2ncc(C(N)=O)c(NC3CCC3)n2)CC1`
Marked response: > 6.70

Exam item: Repeat with `CCC1(Nc2nc(N[C@H]3CC[C@H](OC)CC3)ncc2C(N)=O)CCC1`
Marked response: > 6.70

###

Biological target: JNK1 (Homo sapiens, UniProt P45983)
Construct: purchased Carna Biosciences
Sequence (P45983 whole entry): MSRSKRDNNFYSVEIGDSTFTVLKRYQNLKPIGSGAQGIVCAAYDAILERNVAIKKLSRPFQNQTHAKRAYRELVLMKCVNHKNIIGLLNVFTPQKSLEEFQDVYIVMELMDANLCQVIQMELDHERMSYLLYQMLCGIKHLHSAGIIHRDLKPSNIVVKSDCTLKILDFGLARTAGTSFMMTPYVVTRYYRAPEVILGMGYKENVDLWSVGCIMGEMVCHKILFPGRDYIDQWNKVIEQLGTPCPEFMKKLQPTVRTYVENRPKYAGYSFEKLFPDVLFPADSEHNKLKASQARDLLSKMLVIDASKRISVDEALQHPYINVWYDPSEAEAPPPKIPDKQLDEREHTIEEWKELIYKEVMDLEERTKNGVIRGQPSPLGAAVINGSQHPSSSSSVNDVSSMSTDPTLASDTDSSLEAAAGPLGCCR
Test: JNK1 biochemical assays (one or more of: time resolved fluorescence, Z'-LYTE Cascade, radioactive)
Conditions: tested in one or more of the JNK1 biochemical assays; read-out: Act. Level (JNK1 biochemical assay IC50 activity level)
measured.property: IC50

Exam item: Find IC50 (JNK1 (Homo sapiens, UniProt P45983)) for the entry CCO[C@H]1CC[C@H](Nc2ncc(C(N)=O)c(N[C@@H]3CCC(O)C3)n2)CC1 (some centres unmarked) [Example A-96]
Marked response: < 200 nM

Exam item: Repeat with CO[C@@H]1CCC[C@@H](Nc2ncc(C(N)=O)c(N[C@@H]3CCC[C@H](O)C3)n2)CC1 [Example A-201]
Marked response: < 200 nM

Exam item: Repeat with NC(=O)c1cnc(NC2CCOCC2)nc1N[C@@H]1CCC[C@H](O)C1 [Example A-57]
Marked response: < 200 nM

Exam item: Repeat with CO[C@H]1CC[C@H](Nc2ncc(C(N)=O)c(N[C@H]3CCCC[C@](C)(O)C3)n2)CC1 [Example A-184]
Marked response: 200 to 800 nM

Exam item: Repeat with CCO[C@@H]1CC[C@@H](Nc2ncc(C(N)=O)c(N[C@H]3CCC[C@@H]3O)n2)C1 [Example A-76]
Marked response: 200 to 800 nM

Exam item: Repeat with NC[C@H]1CC[C@@H](Nc2nc(NC3CCOCC3)ncc2C(N)=O)CC1 [Example A-108]
Marked response: < 200 nM

Exam item: Repeat with CO[C@H]1CC[C@H](Nc2ncc(C(N)=O)c(N[C@H]3CC[C@H](NC(C)=O)CC3)n2)CC1 [Example A-38]
Marked response: < 200 nM

Exam item: Repeat with CC1(Nc2ncc(C(N)=O)c(N[C@@H]3CCCC[C@H](O)C3)n2)CCOCC1 [Example A-181]
Marked response: < 200 nM
